- tgt: T1, CRBN, Q96SW2
- T1 chain: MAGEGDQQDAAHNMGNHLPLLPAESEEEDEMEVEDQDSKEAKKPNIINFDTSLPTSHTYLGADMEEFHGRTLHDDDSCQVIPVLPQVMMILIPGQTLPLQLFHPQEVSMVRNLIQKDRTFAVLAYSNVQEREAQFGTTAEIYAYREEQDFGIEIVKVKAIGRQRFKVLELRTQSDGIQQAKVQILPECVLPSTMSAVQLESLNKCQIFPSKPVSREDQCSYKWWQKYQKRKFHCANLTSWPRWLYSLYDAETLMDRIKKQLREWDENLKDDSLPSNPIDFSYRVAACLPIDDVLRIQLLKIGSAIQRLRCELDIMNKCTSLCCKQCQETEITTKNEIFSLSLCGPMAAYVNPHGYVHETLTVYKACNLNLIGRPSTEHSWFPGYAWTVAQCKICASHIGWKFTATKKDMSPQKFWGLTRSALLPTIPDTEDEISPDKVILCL
- method_notes: log2 fold change of degron read counts, EGFP-low vs EGFP+ sorted cells (limma voom), compound-induced degradation; higher = more compound-induced degradation of the degron-EGFP fusion; degrons are variants of IKZF1/3 zinc finger 2; compound dose not given here;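 note: pooled lentiviral library of zinc finger degron-EGFP fusions in mCherry-positive Jurkat cells, FACS-sorted after compound exposure, with degron abundance counted by next-generation sequencing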
- assay_context: Jurkat; 18 h; compound: compound 33 (diphenyl IMiD analogue)
In all, about 8,300 sequences were measured (“log2 fold change of degron read counts, EGFP-low vs EGFP+ sorted cells (limma voom), compound-induced degradation”: median about -1.1, highest 2% from about 3.2 on). For the sample, the highest values were picked, then their nearest neighbours and some sequences at random.
measured_endpoint: log2 fold change of degron read counts
Output: the number by itself.

Examples with their reported log2 fold change of degron read counts follow.
FTCNQCGAMFTQKGNLLRHIKL [46F_47T_49N_50Q_52G_53A_54M_55F_67L_, Q9UKT9] = -1.29
FTCEICGRLFTQKGNLLRHIKL [46F_47T_49E_50I_52G_53R_54L_55F_67L_, Q9UKT9] = -0.938
FRCPVCGAFFTQKGNLLRHIKL [46F_47R_49P_50V_52G_53A_54F_55F_67L_, Q9UKT9] = 1.19

Note to self: log2 fold change of degron read counts recorded for LSCNQCGFVCTQKGNLLRHIKL [46L_47S_49N_50Q_52G_53F_54V_55C_67L_, Q9UKT9] was -2

Where do these numbers come from? They come from the supplement of paper PMC12645437.
